# target_under_test: T1, Soluble recombinant human urokinase receptor (suPAR) (human, UniProt Q03405 23-299, limits assumed, biotinylated in the plate assays (sites not given))
# T1 construct: Only called a soluble truncated form of the urokinase receptor; also called soluble uPAR; biotinylated suPAR
# experimental_protocol: competition with phage displaying peptide 9 for soluble uPAR
Square brackets hold non-standard residues; d marks the D form. Ends that are not written are not given here.

binder	% Inhibition at 5 uM
AEFFKLGPNGYVYLH[dS]A-NH2 (N-terminus assumed; SMILES CC(C)C[C@H](NC(=O)[C@H](CCCCN)NC(=O)[C@H](Cc1ccccc1)NC(=O)[C@H](Cc1ccccc1)NC(=O)[C@H](CCC(=O)O)NC(=O)[C@H](C)N)C(=O)NCC(=O)N1CCC[C@H]1C(=O)N[C@@H](CC(N)=O)C(=O)NCC(=O)N[C@@H](Cc1ccc(O)cc1)C(=O)N[C@H](C(=O)N[C@@H](Cc1ccc(O)cc1)C(=O)N[C@@H](CC(C)C)C(=O)N[C@@H](Cc1c[nH]cn1)C(=O)N[C@H](CO)C(=O)N[C@@H](C)C(N)=O)C(C)C) [Analog 95]	59%
